test: Permeability coefficient in HPC/cholesterol extruded vesicles; conditions: not told, permeability coefficient P, 60° C., 60/40 HPC/cholesterol extruded vesicles (Table II)
QUANTITY_KIND: Papp (×10⁻⁶ cm/s)
Just the number in ×10⁻⁶ cm/s, nothing appended.

Query: Look up Papp: CCn1cc(C(=O)O)c(=O)c2ccc(C)nc21 [nalidixic acid]
Result: 0.17
